TGI values, listed per item
- System: A498 renal
- test summary: NCI tumour cell line growth inhibition, 48 h
parameter: TGI (µM)

CC(C)=C[C@@H]1C[C@H](C)[C@H]2CC[C@H](C)c3c(O)c(OC4OCC(O)C(O)C4O)c(C)c1c32 (some centres undefined) :: 27.5
CCCCCCCCCCCCCCCC[N+](C)(C)Cc1ccc(F)cc1 :: 88.7
S=c1[nH]nc(C23CC4CC(CC(C4)C2)C3)n1-c1ccc(Cl)cc1 :: 42.6
C=C(C)[C@@H]1CC[C@]2(C)[C@H](CC[C@@H]3[C@@H]([C@@](C)(O)CCC=C(C)C)CC[C@]32C)[C@@]1(C)CCC(=O)N1CCN(C)CC1 :: 26.6
COc1ccc(-c2cn(-c3cccc(C(=O)/C=C/c4cc(OC)c(OC)c(OC)c4)c3)c(=O)[nH]2)cc1 :: 14.5

---

- Test system: MOLT-4 leukemia
- test summary: NCI tumour cell line growth inhibition, 48 h
parameter: TGI

S=C1Cc2cc3ccccc3nc2-c2ccccc2N1 :: > 100 µM
N#CCCN(CCC#N)c1ccc(/C=C2\N=C(c3cc([N+](=O)[O-])ccc3Cl)N(S(=O)(=O)c3ccccc3)C2=O)cc1 :: > 100 µM
Clc1ccc(Cc2nc3cc(Cl)ccc3o2)cc1 :: > 100 µM
Oc1ccc(Cl)cc1-c1cc(-c2ccc(Cl)cc2)n[nH]1 :: 19.5 µM
CC(C)(C)c1cc(COc2c3sc(=S)sc3c(OCc3cc(C(C)(C)C)cc(C(C)(C)C)c3)c3sc(=S)sc23)cc(C(C)(C)C)c1 :: > 100 µM

---

Let's look at some compounds and their measured TGI.
- Tested on: NCI-H460 lung
- test summary: NCI tumour cell line growth inhibition, 48 h
Where a SMILES comes first, the peptide text is derived from it. [ ]: non-standard residue; d: D form. The star is where a group is joined. Phe(2-OMe) = COc1ccccc1C[CH](N)C(=O)O; Cbz = O=C(OCc1ccccc1)*; OBn = c1ccc(CO*)cc1
parameter: TGI

CCN1C2=C(SC(=S)C1=C1SC(C(=O)OC)=C(C(=O)OC)S1)SC(=Nc1ccc(OC)cc1)C2=O :: 4.65 µM
CC1(C=O)C(=O)CCC2(C)C3CC(=O)OC3CCC12 (stereo not given) :: > 100 µM
COc1c(Cl)nc2ccccc2c1N=[N+]=[N-] :: > 100 µM
O=C(/C=C/c1ccccc1O)c1cccs1 :: > 100 µM
Nc1c(C(=O)c2cccc(-c3ccncc3)c2)cnn1-c1ccc(F)cc1 :: > 25 µM
CC1C=CC(O)[C@]2(CO)CC3(CCC12)OCCO3 (stereo not given in full) :: > 100 µM
COC(=O)C(Cc1ccccc1OC)NC(=O)C(CC(=O)OCc1ccccc1)NC(=O)OCc1ccccc1 (stereo not given) (Cbz-Asp(OBn)-[Phe(2-OMe)]-OMe; configuration not given here) :: > 100 µM
Cc1ccc(C2=C(c3ccccc3)C(=O)C(c3ccccc3)=C2c2ccc(C)cc2)cc1 :: > 100 µM
[O-][n+]1c2cc(CBr)c(CBr)cc2[n+]([O-])c2c(O)cccc21 :: 4.21 µM
COc1cc2c3c(c1OC)-c1ccccc1C(C(O)c1ccccc1)C3N(C)CC2 (stereo not given) :: 90 µM

---

- System: SR leukemia
- test summary: NCI tumour cell line growth inhibition, 48 h
parameter: TGI (µM)

CC(=O)Nc1ccc(S(=O)(=O)/N=C2\C=CC(=O)c3ccccc32)cc1 :: 11.8
O=C(O)CCC(=O)N1C/C(=C\c2ccccc2)C(=O)/C(=C/c2ccccc2)C1 :: 3.96
CC12C=C[C@]3(CC[C@@H]4[C@@](C)(CO)CCC[C@]4(C)C3CC1)C2 (some centres not stated) :: 37

---

- Tested on: MCF7 breast
- test summary: NCI tumour cell line growth inhibition, 48 h; in the data active = GI50 below about 0.43 µM; inactive = the rest
Labels: class 1 = active, class 0 = inactive

Cc1cnc(NC2CCOCC2)nc1-n1cnc(C(=O)N[C@H](CN)c2cc(F)cc(Cl)c2)c1 :: class 0
C=C1C(C(O)C[C@H](C)C2O[C@@]3(CCCCO3)CCC2C)O[C@@H]2CCC3(CCC(/C=C/[C@@H](C)C4CC(C)=CC5(O4)O[C@H](C[C@](C)(O)C(=O)O)CCC5O)O3)OC2[C@@H]1O (stereo not given in full) :: class 1
O=c1c2[nH]ccc2nc2n1CCS2 :: class 0
NC(=O)c1cc(Cl)ccc1NC(=O)COc1ccccc1 :: class 0
CN(C)c1ccc(N=Nc2ccc(Br)cn2)c(O)c1 :: class 1
Clc1ccc(-c2nc(-c3ccccc3)cn3ccnc23)cc1 :: class 0
Nc1c(C(=O)c2cccc(-c3ccncc3)c2)cnn1-c1ccc(F)cc1 :: class 0
Cc1oc2nc[nH]c(=O)c2c1C(=O)/C=C/c1ccc(Br)cc1 :: class 0
C1CCC(C(CC2CCCCN2)C2CCCCC2)CC1 (stereo not given) :: class 0
Nc1cc2ccccc2c(O)c1O :: class 0

---

- Test system: LOX IMVI melanoma
- test summary: NCI tumour cell line growth inhibition, 48 h; in the data active = GI50 below about 0.43 µM; inactive = the rest
Labels: active, inactive

C/C(=N\NC(=O)c1ccccc1N)c1ccccc1O :: inactive
C=C(C)[C@@H]1CC[C@]2(C)[C@H](CC[C@@H]3[C@@H]([C@@](C)(O)CCC=C(C)C)CC[C@]32C)[C@@]1(C)CCC(=O)N1CCN(C)CC1 :: inactive
Cc1ccc(/C(=C/C=C(/C#N)C(N)=O)Sc2ncnn2C)cc1 :: active
CC(C)CC(=O)[O-].N.N.N.N.N.[Co+3].[O-][Cl+3]([O-])([O-])[O-] :: inactive
Nc1cc2ccccc2c(O)c1O :: inactive
COC(=O)CCC1=C(C)C(C)=N/C1=C\c1[nH]c(-c2ccc[nH]2)cc1OC :: active
C=C1C(=O)O[C@H]2[C@H]1CC/C(COC(=O)NCc1c[nH]c3ccc(Br)cc13)=C\CC[C@@]1(C)O[C@@H]21 :: inactive
CC1CN=C(c2cccc(-c3ccc(-c4ccccc4)o3)c2)N1 (centres undefined) :: inactive
COc1ccc(-c2cn(-c3cccc(C(=O)/C=C/c4cc(OC)c(OC)c(OC)c4)c3)c(=O)[nH]2)cc1 :: inactive

---

- System: MDA-MB-231 breast
- test summary: NCI tumour cell line growth inhibition, 48 h
parameter: log10 of TGI (log10 of the value in µM)

CCOC(=O)NC(C(F)(F)F)(C(F)(F)F)P(=O)(OCC(C)C)OCC(C)C :: 1.59
Oc1cc(Cn2cnc3c(Cl)nc(Cl)nc32)ccc1C12CC3CC(CC(C3)C1)C2 :: 1.48
S=c1[nH]nc(C23CC4CC(CC(C4)C2)C3)n1-c1ccc(Cl)cc1 :: 1.75
CN(C)CCn1c(=O)nc2c3c(c([N+](=O)[O-])ccc31)Nc1ccc(O)cc1-2 :: 1.01
O=c1oc2ccccc2c(O)c1/C=N\c1nc(-c2ccc(O)c(O)c2)cs1 :: 1.27
CCC(C)C1=NC(C(=O)N/C=C\c2c[nH]c3cc(Br)c(Br)cc23)(C(C)C)NC1=O (configuration not stated) :: 1.59
C=C(C)C12OC3(c4ccccc4)OC1C1C4OC4(CO)C(O)C4(O)C(=O)C(C)=CC4C1(O3)C(C)C2OC(=O)/C=C/C=C/c1ccccc1 (configuration not stated) :: -0.58
Cc1c2cccc(Sc3ccccc3)c2c2c3c(cccc13)[S+](c1ccccc1)C2 (configuration not stated) :: 0.75

---

- Tested on: NCI-H522 lung
- test summary: NCI tumour cell line growth inhibition, 48 h
parameter: TGI

COc1cc(Nc2cnc3ccc(N)cc3n2)cc(OC)c1OC :: > 100 µM
CC(=O)OC(OC(C)=O)c1ncccc1C(=O)OC(C)C :: > 100 µM
CN(C)C(=S)/N=c1\ss/c(=N\C(=S)N(C)C)n1C1CCCCC1 :: > 100 µM
O=c1[nH]c2c3ccncc3cc(-c3cccc(Cl)c3)c2c2cnccc12 :: > 100 µM
COc1ccc(O)c2c(=O)ccccc12 :: 91.7 µM
C1CCC(C(CC2CCCCN2)C2CCCCC2)CC1 (stereo unspecified) :: 3.16 µM
O=c1ccc2[n+]([O-])c3ccc(O)cc3oc-2c1 :: 36.6 µM
CCCCNC(=O)NNC(=O)c1cc(/C=C/c2cccc([N+](=O)[O-])c2)ncn1 :: > 100 µM
CNc1nc(N)cc(=O)[nH]1 :: > 100 µM
C=C(C)C12OC3(c4ccccc4)OC1C1C4OC4(CO)C(O)C4(O)C(=O)C(C)=CC4C1(O3)C(C)C2OC(=O)/C=C/C=C/c1ccccc1 (stereo unspecified) :: 1.1 µM
COC1OC(Cn2c(C)nc(Br)c2Br)C(O)C(O)C1O (stereo unspecified) :: > 100 µM

---

- Test system: MALME-3M melanoma
- test summary: NCI tumour cell line growth inhibition, 48 h
parameter: TGI

CCOC(=O)c1c(SCCCN2CCCCC2)n(-c2ccccc2)c(=S)n(-c2ccccc2)c1=O :: 29.8 µM
O=Cc1cn(CCCCCn2cc(C=O)c3ccccc32)c2ccccc12 :: > 100 µM
CN(C)C(=S)/N=c1\ss/c(=N\C(=S)N(C)C)n1C1CCCCC1 :: > 100 µM
CCO/C(O)=C(/C(=N)N1CCOCC1)C(=O)Nc1cccc(Cl)c1 :: > 100 µM

meta.source: PubChem BioAssay (NCI)
